These entries and their values trace back to patent US20090082337A1.

Tested on: Enterobacter aerogenes (IFO 13534)
Assay Overview: In vitro anti-bacterial activity (MIC90), Gram-negative bacteria
Assay type: cell-based
Condition Info: Klebsiella aerogenes, IFO13534, Gram-negative reference strain
Quantity Measured: MIC90 (µg/mL)
Supply the numeric figure in µg/mL, leaving out any unit text.

Consider the reported MIC90 for these compounds:
{"Compound": "N[C@@H]1CCCCN(c2c(F)cc3c(=O)c(C(=O)O)cn(C4CC4)c3c2Cl)C1", "MIC90 (µg/mL)": 0.39}
{"Compound": "CC1CCc2c(N3CCC(O)CC3)c(F)cc3c(=O)c(C(=O)O)cn1c23 (stereo not shown)", "MIC90 (µg/mL)": 1.56}
{"Compound": "C[C@@H]1CN(c2c(F)c(N)c3c(=O)c(C(=O)O)cn(C4CC4)c3c2F)C[C@H](C)N1", "MIC90 (µg/mL)": 0.1}

Now for the compound whose MIC90 we want.
Request: Any idea what MIC90 was measured for CC1COc2c(N3CCN(C)CC3)c(F)cc3c(=O)c(C(=O)O)cn1c23 (stereo not shown) ?
Response: 0.2
